Numbers sourced from paper PMC3514216.

Target: T1, GST-Sh2d1b SH2 domain (human, UniProt O14796 5-101)
T1 construct: SH2 domain of Sh2d1b (Eat-2); also called Eat-2; source: E. coli BL21, purified (glutathione sepharose, NAP-10)
T1 sequence (looked up): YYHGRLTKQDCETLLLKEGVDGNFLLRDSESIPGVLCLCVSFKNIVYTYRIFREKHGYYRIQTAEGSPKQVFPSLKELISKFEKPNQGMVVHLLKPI
Assay: fluorescence polarisation; Rhodamine B-labelled peptide in solution with SH2 domain; Beacon 2000; as previously described [40]
Details: both partners purified
Non-standard residues stand in square brackets, D forms with d. No end group written: not given here. pY = N[C@@H](Cc1ccc(OP(=O)(O)O)cc1)C(=O)O
measured-endpoint: Kd (µM)
Numbers only, in µM.

// Kd lookup, binder = STDE[pY]LDLSAP (also: Rhodamine B label, site not given here, FGFR3 around Y760; source: synthetic peptide (FMOC chemistry), purified by LC/MS) [FGFR3 (Y760) phosphopeptide STDEpYLDLSAP, Rhodamine B-labelled] , result: 5.3
